Kindly state Root length for each of the entries shown.
Tested on: interior spruce somatic embryos
Assay type: in vivo, Picea glauca (Moench) Voss x P. engelmannii Parry ex Engelm.
Settings: germination media m24GMD (without sucrose); osmoticant levels as E220
Just the number please, in mm, no unit attached.

Req: // query Root length value for entry OC[C@H]1O[C@@H](O[C@H]2[C@H](O)[C@@H](O)C(O)O[C@@H]2CO)[C@H](O)[C@@H](O)[C@H]1O (stereo partly shown) [lactose]
Resp: 0.3

Req: Note, next up: C[N+](C)(C)CC(=O)O [betaine]
Resp: 0.4

Req: Note, next up: OC[C@@H](O)[C@@H](O)[C@H](O)[C@H](O)CO [mannitol]
Resp: 0.3

Req: Note, next up: OC[C@H]1O[C@@](CO)(O[C@H]2O[C@H](CO)[C@@H](O)[C@H](O)[C@H]2O)[C@@H](O)[C@@H]1O [sucrose]
Resp: 2.4

Req: Note, next up: OC[C@H]1O[C@H](O[C@H]2[C@H](O)[C@@H](O)[C@H](O)O[C@@H]2CO)[C@H](O)[C@@H](O)[C@@H]1O [maltose]
Resp: 0.8

Req: Note, next up: O=C(CO)[C@@H](O)[C@H](O)[C@H](O)CO [fructose]
Resp: 2.1

Req: Note, next up: OC[C@@H](O)[C@@H](O)[C@H](O)[C@@H](O)CO [sorbitol]
Resp: 0.4

---

Test system: interior spruce somatic embryos
Format: in vivo, Picea glauca (Moench) Voss x P. engelmannii Parry ex Engelm.
Conditions: germination media m24GMD (without sucrose); osmoticant levels as E220
measured_parameter: Shoot length (mm)
Just the number please, in mm, no unit attached.

Req: What is its Shoot length for interior spruce somatic embryos? Entry: `OC[C@@H](O)[C@@H](O)[C@H](O)[C@@H](O)CO`
Resp: 10.7

Req: Note, next up: `C[N+](C)(C)CC(=O)O`
Resp: 11.2

Req: Note, next up: `O=C(CO)[C@@H](O)[C@H](O)[C@H](O)CO`
Resp: 10.0

Req: Note, next up: `OC[C@@H](O)[C@@H](O)[C@H](O)[C@H](O)CO`
Resp: 10.0

Req: Note, next up: OC[C@H]1O[C@@H](O[C@H]2[C@H](O)[C@@H](O)C(O)O[C@@H]2CO)[C@H](O)[C@@H](O)[C@H]1O (stereo partly shown)
Resp: 11.5

Req: Note, next up: `OC[C@H]1O[C@H](O[C@H]2[C@H](O)[C@@H](O)[C@H](O)O[C@@H]2CO)[C@H](O)[C@@H](O)[C@@H]1O`
Resp: 11.2

Req: Note, next up: `OC[C@H]1O[C@@](CO)(O[C@H]2O[C@H](CO)[C@@H](O)[C@H](O)[C@H]2O)[C@@H](O)[C@@H]1O`
Resp: 14.7

---

Tested on: interior spruce somatic embryos
Type: in vivo, Picea glauca (Moench) Voss x P. engelmannii Parry ex Engelm.
Settings: in vivo
measured_parameter: % with hyperhydricity (%)
Just the number please, in %, no unit attached.

Req: // query % with hyperhydricity value for entry `OC[C@H]1O[C@@](CO)(O[C@H]2O[C@H](CO)[C@@H](O)[C@H](O)[C@H]2O)[C@@H](O)[C@@H]1O`
Resp: 40.0

Req: Note, next up: `C[N+](C)(C)CC(=O)O`
Resp: 76.3

Req: Note, next up: OC[C@H]1O[C@@H](O[C@H]2[C@H](O)[C@@H](O)C(O)O[C@@H]2CO)[C@H](O)[C@@H](O)[C@H]1O (stereo partly shown)
Resp: 100

Req: Note, next up: `OC[C@@H](O)[C@@H](O)[C@H](O)[C@@H](O)CO`
Resp: 92.6

Req: Note, next up: `OC[C@H]1O[C@H](O[C@H]2[C@H](O)[C@@H](O)[C@H](O)O[C@@H]2CO)[C@H](O)[C@@H](O)[C@@H]1O`
Resp: 100

Req: Note, next up: `O=C(CO)[C@@H](O)[C@H](O)[C@H](O)CO`
Resp: 86.3

Req: Note, next up: `OC[C@@H](O)[C@@H](O)[C@H](O)[C@H](O)CO`
Resp: 93.5

---

System: interior spruce somatic embryos
Assay type: in vivo, Picea glauca (Moench) Voss x P. engelmannii Parry ex Engelm.
Settings: germination media m24GMD plus 3% sucrose; osmoticant levels as E220
Kindly state Shoot length for each of the entries shown.
Just the number please, in mm, no unit attached.

Req: // query Shoot length value for entry `OC[C@H]1O[C@H](O[C@H]2[C@H](O)[C@@H](O)[C@H](O)O[C@@H]2CO)[C@H](O)[C@@H](O)[C@@H]1O`
Resp: 14.2

Req: Note, next up: `O=C(CO)[C@@H](O)[C@H](O)[C@H](O)CO`
Resp: 13.5

Req: Note, next up: `OC[C@@H](O)[C@@H](O)[C@H](O)[C@@H](O)CO`
Resp: 14.5

Req: Note, next up: `OC[C@@H](O)[C@@H](O)[C@H](O)[C@H](O)CO`
Resp: 13.6

Req: Note, next up: OC[C@H]1O[C@@H](O[C@H]2[C@H](O)[C@@H](O)C(O)O[C@@H]2CO)[C@H](O)[C@@H](O)[C@H]1O (stereo partly shown)
Resp: 15.5

Req: Note, next up: `C[N+](C)(C)CC(=O)O`
Resp: 14.2

Req: Note, next up: `OC[C@H]1O[C@@](CO)(O[C@H]2O[C@H](CO)[C@@H](O)[C@H](O)[C@H]2O)[C@@H](O)[C@@H]1O`
Resp: 18.1

The measured values listed here are drawn from patent US6689609B1.
